# Tested on: Plasmodium falciparum TM4
# measurementProtocol: In vitro analysis versus strains of Plasmodium falciparum: TM4
# Format: cell-based
reportedProperty: IC50
# do not omit the unit; it follows the number

Please look up its IC50: CCN(CC)CCCC(C)Nc1ccnc2cc(Cl)ccc12 (stereo not shown) [Chloroquine, reference compound]
0.0913 µM

----------
What Tox 50 was measured for each of the following?
# Tested on: MRC-5 Embryonal lung, diploid
# measurementProtocol: Cellular cytotoxicity screen, Resazurin reduction
# Format: cell-based, Human

Please look up its Tox 50: CCS(=O)(=O)N1CCC2(CC1)OOC1(OO2)C2CC3CC(C2)CC1C3 [Tetraoxane 39b]
>50 µM

Please look up its Tox 50: COc1cccc2c1C(=O)c1c(O)c3c(c(O)c1C2=O)C[C@@](O)(C(=O)CO)C[C@@H]3O[C@H]1C[C@H](N)[C@H](O)[C@H](C)O1
2 µM

Please look up its Tox 50: O=S(=O)(C1CC1)N1CCC2(CC1)OOC1(OO2)C2CC3CC(C2)CC1C3 [Tetraoxane 39d]
>50 µM

Please look up its Tox 50: O=C(CC1CCC2(CC1)OOC1(OO2)C2CC3CC(C2)CC1C3)N1CCOCC1 (stereo not shown) [Tetraoxane 29h]
>50 µM

----------
What Max. Fold Increase was measured for each of the following?
# System: Salmonella typhimurium NM2009
# measurementProtocol: Salmonella typhimurium SOS/umu genotoxicity assay
# recordedConditions: −S9
# do not omit the unit; it follows the number

Please look up its Max. Fold Increase: O=S(=O)(C1CC1)N1CCC2(CC1)OOC1(OO2)C2CC3CC(C2)CC1C3 [Tetraoxane 39d]
1.09 ± 0.03 fold

Please look up its Max. Fold Increase: CCS(=O)(=O)N1CCC2(CC1)OOC1(OO2)C2CC3CC(C2)CC1C3 [Tetraoxane 39b]
1.07 ± 0.03 fold

Please look up its Max. Fold Increase: Nc1ccc2cc3ccccc3cc2c1 [Tetraoxane 2Aan, 2-Aminoanthracene, reference compound]
1.08 ± 0.01 fold

Please look up its Max. Fold Increase: O=C(CC1CCC2(CC1)OOC1(OO2)C2CC3CC(C2)CC1C3)N1CCOCC1 (stereo not shown) [Tetraoxane 29h]
1.22 ± 0.03 fold

----------
# measurementProtocol: physchem
reportedProperty: solubility

Please look up its solubility: CCS(=O)(=O)N1CCC2(CC1)OOC1(OO2)C2CC3CC(C2)CC1C3 [Tetraoxane 39b]
50 µM

Please look up its solubility: O=S(=O)(C1CC1)N1CCC2(CC1)OOC1(OO2)C2CC3CC(C2)CC1C3 [Tetraoxane 39d]
50 µM

Please look up its solubility: O=C(CC1CCC2(CC1)OOC1(OO2)C2CC3CC(C2)CC1C3)N1CCOCC1 (stereo not shown) [Tetraoxane 29h]
50 µM

Please look up its solubility: Nc1ccc2cc3ccccc3cc2c1 [Tetraoxane 2Aan, 2-Aminoanthracene, reference compound]
5 µg/mL

----------
# Test system: Plasmodium falciparum PH3
# measurementProtocol: In vitro analysis versus strains of Plasmodium falciparum: PH3
# Assay type: cell-based
# recordedConditions: PH3 strain, read-out: IC50
What pIC50 was measured for each of the following?
Keep in mind that pIC50 stands for -log10 of concentration in molar terms.

Please look up its pIC50: CCS(=O)(=O)N1CCC2(CC1)OOC1(OO2)C2CC3CC(C2)CC1C3 [Tetraoxane 39b]
8.72

Please look up its pIC50: CCN(CC)Cc1cc(Nc2ccnc3cc(Cl)ccc23)ccc1O [AM, Amodiaquine, reference compound]
8.33

Please look up its pIC50: O=C(CC1CCC2(CC1)OOC1(OO2)C2CC3CC(C2)CC1C3)N1CCOCC1 (stereo not drawn) [Tetraoxane 29h]
9.52

----------
What IC50 was measured for each of the following?
# Tested on: Plasmodium falciparum PH3
# measurementProtocol: In vitro analysis versus strains of Plasmodium falciparum: PH3
# Format: cell-based
# output: bare number, implied unit nM

Please look up its IC50: C[C@H]1[C@H](OC(=O)CCC(=O)O)O[C@@H]2O[C@@]3(C)CC[C@H]4[C@H](C)CC[C@@H]1[C@@]24OO3 [Artesunate, artesunate]
0.9

Please look up its IC50: CCN(CC)CCCC(C)Nc1ccnc2cc(Cl)ccc12 (centres unmarked) [Chloroquine, reference compound]
72

----------
What pIC50 was measured for each of the following?
# Test system: 3D7 strain of Plasmodium falciparum
# measurementProtocol: In vitro antimalarial activity, 48-h [3H]-hypoxanthine incorporation assay
# Assay type: cell-based
# recordedConditions: 3D7, 3D7 strain, mean of triplicate results, Table 5, read-out: Mean IC50
Keep in mind that pIC50 stands for -log10 of concentration in molar terms.

Please look up its pIC50: O=C(CC1CCC2(CC1)OOC1(CCCCC1)OO2)N1CCOCC1 [Tetraoxane 27h]
7.65

Please look up its pIC50: CO[C@H]1O[C@@H]2O[C@@]3(C)CC[C@H]4[C@H](C)CC[C@@H]([C@H]1C)[C@@]24OO3 [Artemether, artemether, reference compound]
8.77

Please look up its pIC50: C1CCC2(CC1)OOC1(CCC(N3CCOCC3)CC1)OO2
7.53

Please look up its pIC50: O=C(CC1CCC2(CC1)OOC1(CCCCC1)OO2)NCCN1CCOCC1 [Tetraoxane 27f]
7.72

Please look up its pIC50: O=C(CC1CCC2(CC1)OOC1(CCCCC1)OO2)NCCN1CCCCC1 [Tetraoxane 27e]
7.72

Please look up its pIC50: O=C(CC1CCC2(CC1)OOC1(OO2)C2CC3CC(C2)CC1C3)N1CCS(=O)(=O)CC1 (centres unmarked)
7.62

Please look up its pIC50: CCN(CC)CCNC(=O)CC1CCC2(CC1)OOC1(CCCCC1)OO2 [Tetraoxane 27g]
8.29

Please look up its pIC50: O=C1CCC2(CC1)OOC1(CCCCC1)OO2
8.22

Please look up its pIC50: O=C(CC1CCC2(CC1)OOC1(CCCCCCCCCCC1)OO2)N1CCS(=O)(=O)CC1
7.03

Please look up its pIC50: C1CCC2(CC1)OOC1(CCC(NC3CC3)CC1)OO2
7.70

Please look up its pIC50: O=C(CC1CCC2(CC1)OOC1(OO2)C2CC3CC(C2)CC1C3)N1CCCCC1 (centres unmarked) [Tetraoxane 29m]
9.30

Please look up its pIC50: O=C(CC1CCC2(CC1)OOC1(CCCCCCCCCCC1)OO2)N1CCOCC1 [Tetraoxane 28h]
7.63

Please look up its pIC50: C[C@@H]1CC[C@H]2[C@@H](C)C(=O)O[C@@H]3O[C@@]4(C)CC[C@@H]1[C@]32OO4 [Artemisinin, reference compound]
8.02

Please look up its pIC50: O=C(CC1CCC2(CC1)OOC1(CCCCCCCCCCC1)OO2)NC1CC1 [Tetraoxane 28c]
7.73

Please look up its pIC50: O=C(CC1CCC2(CC1)OOC1(OO2)C2CC3CC(C2)CC1C3)NC1CC1 (centres unmarked) [Tetraoxane 29c]
8.64

Please look up its pIC50: CC(C)CN1CCN(C(=O)CC2CCC3(CC2)OOC2(OO3)C3CC4CC(C3)CC2C4)CC1 (centres unmarked) [Tetraoxane 29s]
8.57

Please look up its pIC50: CCOC(=O)CC1CCC2(CC1)OOC1(CCCCC1)OO2 [Tetraoxane 27a]
7.62

----------
What melting point was measured for each of the following?

Please look up its melting point: O=C(CC1CCC2(CC1)OOC1(OO2)C2CC3CC(C2)CC1C3)N1CCS(=O)(=O)CC1 (centres unmarked) [Tetraoxane 32]
189 to 191 °C

Please look up its melting point: O=C(CC1CCC2(CC1)OOC1(CCCCC1)OO2)NCCN1CCCC1 [Tetraoxane 27d]
110 to 112 °C

Please look up its melting point: O=C(CC1CCC2(CC1)OOC1(CCCCC1)OO2)N1CCOCC1 [Tetraoxane 27h]
126 to 128 °C

Please look up its melting point: O=C(CC1CCC2(CC1)OOC1(OO2)C2CC3CC(C2)CC1C3)N1CCSCC1 (centres unmarked) [Tetraoxane 29i]
150 to 152 °C

Please look up its melting point: O=C(CC1CCC2(CC1)OOC1(OO2)C2CC3CC(C2)CC1C3)N1CCOCC1 (centres unmarked) [Tetraoxane 29h]
139 to 140 °C

Please look up its melting point: O=C(CC1CCC2(CC1)OOC1(CCCCC1)OO2)NCCN1CCCCC1 [Tetraoxane 27e]
68 to 78 °C

Please look up its melting point: O=C(CC1CCC2(CC1)OOC1(CCCCCCCCCCC1)OO2)N1CCOCC1 [Tetraoxane 28h]
118 to 120 °C

Please look up its melting point: O=C(CC1CCC2(CC1)OOC1(CCCCCCCCCCC1)OO2)NCCN1CCOCC1 [Tetraoxane 28f]
78 to 80 °C

----------
What melting point was measured for each of the following?

Please look up its melting point: O=C(CC1CCC2(CC1)OOC1(CCCCC1)OO2)NC1CC1 [Tetraoxane 27c]
148 to 150 °C

Please look up its melting point: O=C(CC1CCC2(CC1)OOC1(CCCCCCCCCCC1)OO2)N1CCSCC1 [Tetraoxane 28i]
108 to 110 °C

Please look up its melting point: O=C(CC1CCC2(CC1)OOC1(CCCCCCCCCCC1)OO2)NC1CC1 [Tetraoxane 28c]
136 to 138 °C

Please look up its melting point: COC(=O)[C@@H](NC(=O)CC1CCC2(CC1)OOC1(OO2)C2CC3CC(C2)CC1C3)C(C)C (stereo in doubt) [Tetraoxane 29j, Adamantyl acetamide]
108 to 110 °C

Please look up its melting point: O=C1CCC2(CC1)OOC1(OO2)C2CC3CC(C2)CC1C3 [Tetraoxane 12, adamantane tetraoxane ketone]
156 to 158 °C

Please look up its melting point: O=C(CC1CCC2(CC1)OOC1(CCCCCCCCCCC1)OO2)N1CCS(=O)(=O)CC1 [Tetraoxane 31]
170 to 172 °C

Please look up its melting point: O=C1CCC2(CC1)OOC1(CCCCCCCCCCC1)OO2 [Tetraoxane 11]
108 to 110 °C

Please look up its melting point: O=C(CC1CCC2(CC1)OOC1(OO2)C2CC3CC(C2)CC1C3)NCCN1CCCC1 (centres unmarked) [Tetraoxane 29d]
142 to 144 °C
